All figures here come from ChEMBL document CHEMBL1148972.

assay: Cytotoxicity against human PC-3MIE8 cells after 48 hrs by MTT assay; type: functional, cell-based; conditions: PC-3MIE8, 48 h
OBSERVABLE: IC50

1. COc1cc2c(c(OC)c1OC)-c1ccc(OC)c(=O)cc1[C@@H](NC(C)=O)CC2	0.7 µg/mL
2. COC(=O)/C(C)=C/C=C/C(C)=C/C=C/C(C)=C1\C(=O)C[C@H]2[C@@]3(C)CCC(=O)C(C)(C)[C@@H]3CC[C@]12C	> 5 µg/mL
3. CC(=O)/C=C/C(=O)/C(C)=C/C=C/C(C)=C1\C(=O)C[C@H]2[C@@]3(C)CCC(=O)C(C)(C)[C@@H]3CC[C@]12C	> 5 µg/mL
